Experiment: chemical genetic growth profiling, strain panel (AID 1159580);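 note: tested at 20 µM; growth read once vehicle control cultures reached saturation at 30 °C; lower values mean less growth of the strain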
Details: S. cerevisiae deletion strains, growth OD, locus YKR026C, strain gcn3
The campaign covered roughly 5,500 compounds. About 2,000 (36%) were called active. Roughly 18% stayed inconclusive and do not appear here. Cut-off read from the data, not from the text of the source: active = normalized growth mostly below about 0.91 (no sharp cut-off); inconclusive = no clear call, values can overlap the other calls; inactive = mostly above about 0.92. The list shows a part of the results.
Choose one outcome from this list and give only that: active, inactive

Qu. Returns: the outcome recorded for CC(=O)OCC(=O)[C@@]1(O)CCC2C3CC[C@@H]4C[C@H](O)CC[C@]4(C)C3C(=O)C[C@@]21C (some centres not stated) in this assay.
Ans. inactive

Qu. Returns: the outcome recorded for COc1cc2c3cc1Oc1cc(ccc1O)C[C@@H]1c4c(cc(OC)c(O)c4Oc4ccc(cc4)C[C@@H]3N(C)CC2)CC[N+]1(C)C in this assay.
Ans. inactive

Qu. Returns: the outcome recorded for COC(=O)C1=C(C)NC(C)=C(C(=O)OCCN(C)Cc2ccccc2)C1c1cccc([N+](=O)[O-])c1 (configuration not stated) in this assay.
Ans. inactive

Qu. Returns: the outcome recorded for [N-]=[N+]=CC(=O)OCC(N)C(=O)O (configuration not stated) in this assay.
Ans. inactive

Qu. Returns: the outcome recorded for COC(=O)C1=C(C)NC(C)=C(C(=O)OCC(C)C)C1c1ccccc1[N+](=O)[O-] (configuration not stated) in this assay.
Ans. active

Qu. Returns: the outcome recorded for CN(C)CCC=C1c2ccccc2C=Cc2ccccc21 in this assay.
Ans. inactive

Qu. Returns: the outcome recorded for O=c1cc(-c2ccc(O)c(O)c2)oc2ccccc12 in this assay.
Ans. inactive

Qu. Returns: the outcome recorded for O=c1c(-c2ccccc2)coc2cc(O)cc(O)c12 in this assay.
Ans. inactive

Qu. Returns: the outcome recorded for Cc1cc2cc3c(C)cc(=O)oc3c(C)c2o1 in this assay.
Ans. inactive

Qu. Returns: the outcome recorded for O=c1c2ccccc2[se]n1-c1ccccc1 in this assay.
Ans. active

Qu. Returns: the outcome recorded for O=c1cc(-c2cccc(O)c2)oc2ccc(O)cc12 in this assay.
Ans. inactive

Qu. Returns: the outcome recorded for COc1cc([C@@H]2c3cc4c(cc3[C@H](OC(C)=O)[C@H]3COC(=O)[C@H]23)OCO4)cc(OC)c1OC in this assay.
Ans. inactive

Qu. Returns: the outcome recorded for O=C1CC[C@]23C=CC(=O)NCCCCNCCCNC(=O)/C=C/c4ccc(c2c4)O[C@@H]3C1 in this assay.
Ans. inactive

Qu. Returns: the outcome recorded for CCCN1C[C@H](CSC)C[C@@H]2c3cccc4[nH]cc(c34)C[C@H]21 in this assay.
Ans. inactive

Qu. Returns: the outcome recorded for COCCOC(=O)C1=C(C)NC(C)=C(C(=O)OC(C)C)C1c1cccc([N+](=O)[O-])c1 (configuration not stated) in this assay.
Ans. inactive

Qu. Returns: the outcome recorded for CC(=O)O.CC(=O)O.[Cd] in this assay.
Ans. active

Qu. Returns: the outcome recorded for NS(=O)(=O)c1cc2c(cc1C(F)(F)F)NCNS2(=O)=O in this assay.
Ans. inactive

Qu. Returns: the outcome recorded for CC(C(=O)O)[C@H]1CCC2C3CC=C4C[C@@H](O)CC[C@]4(C)C3CC[C@@]21C (some centres not stated) in this assay.
Ans. inactive

Qu. Returns: the outcome recorded for COc1ccc(C(=O)/C=C/c2ccccc2)cc1 in this assay.
Ans. inactive

Qu. Returns: the outcome recorded for CC1=NCCc2c1[nH]c1cc(O)ccc21 in this assay.
Ans. inactive

Qu. Returns: the outcome recorded for CN(C)CCC=C1c2ccccc2CCc2ccccc21 in this assay.
Ans. inactive

Qu. Returns: the outcome recorded for O=C1CCc2cc(OCCCCc3nnnn3C3CCCCC3)ccc2N1 in this assay.
Ans. inactive
